B1: Ventral anterior homeobox 1, residues 102 to 157; numbered along this chain, Q5SQQ9 (parent)
chain: RTRTSFTAEQLYRLEMEFQRCQYVVGRERTELARQLNLSETQVKVWFQNRRTKQKK

- Variants of: B1
- method_notes: abundance fitness (aPCA) (normalised: wild type 0, dead -1); higher = more abundant; growth selection in yeast, the domain comes from the species named
- recorded_conditions: Homo sapiens
Binary call on abundance fitness: 1 (yes) from -0.5 upward, 0 (no) beneath that.

Consider the following illustrative entries.
F6S    0 (no)
M16P    0 (no)
R20I    1 (yes)
A33Q    0 (no)
V25I    1 (yes)
E40G    1 (yes)
A8H    0 (no)
K56P    1 (yes)
R13A    1 (yes)
Y23F    1 (yes)

Problem: Is reported abundance fitness greater than or equal to -0.5 here: C21L
Result: 1 (yes)

Problem: Is reported abundance fitness greater than or equal to -0.5 here: V24Y
Result: 1 (yes)

Problem: Is reported abundance fitness greater than or equal to -0.5 here: K55H
Result: 1 (yes)

Problem: Is reported abundance fitness greater than or equal to -0.5 here: Q54T
Result: 1 (yes)

Problem: Is reported abundance fitness greater than or equal to -0.5 here: R1T
Result: 1 (yes)
